Target: Phosphatidylinositol 4-kinase type 2-alpha (Homo sapiens)
Test: qHTS for small molecular inhibitors of PI4K2A
Conditions: purified PI4K2A, ADP-Glo luminescence, 1 h; at 76.9 µM
The campaign covered roughly 420,000 compounds. About 540 (0.13%) were called active. Cut-off read from the data, not from the text of the source: active = activity change below about -50%; inconclusive = mostly about -30% to -49%; inactive = weaker than that. This excerpt belongs to a sample that is enriched for actives.
Returns: one label drawn from active, inactive

Consider the worked cases shown below.
Molecule	Assigned category
CC(C)(C)c1ccc(OCC(=O)N2CCC(c3nc4ccccc4s3)CC2)cc1	inactive
CCOCCn1ccc2c(OCC(=O)NCc3ccc(C)cc3)cccc2c1=O	inactive
O=S(=O)(NCCc1nnc2ccc(SCc3ccc(Cl)cc3Cl)nn12)c1ccccc1	inactive

From here, focus on the item given below.
Query: Test call, this molecule: `COc1cc(C(=O)Nc2ccc(-n3c(C)nc4ccccc4c3=O)cc2)cc(OC)c1OC`
Result: inactive
